- Experiment: TLR3 IRF3 reporter activation blockers – cell-based, poly I:C stimulus, luciferase, 10K MLSCN set, primary screen (AID 602277)
- Measurement context: HEK293-TLR3 RL24 IRF3 luciferase reporter, at 10 µM
The source made the active and inactive calls.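 How the source made its calls: active means inhibition of the reporter signal at or above 50%; inactive means inhibition below 50%.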
Outcomes: 1 for active, -1 for inactive

• C=CCOC(=O)C(C#N)c1nc2ccccc2nc1N1CCN(Cc2ccccc2)CC1 (stereo not given) = -1
• COc1cc(C2C(C#N)=C(N)Oc3cc(N)ccc32)cc(OC)c1OC (stereo not given) = 1
• Cc1ccc(C(C)C)c(OCc2nnc(SCC(=O)Nc3ncc(C)s3)n2C)c1 = -1
• COc1cccc2cc(C(=O)Nc3cccnc3N3CCOCC3)c(=O)oc12 = -1
• CN1CCCN(C(=O)c2cc(=O)[nH]c3ccccc23)c2nc3ccccc3nc21 = -1

###

Some compounds, each annotated with its measured cell count.
- Experiment: inhibitors of TNFa-induced NFkB p65 translocation, primary screen, imaging, HUVEC, MLSMR starter and 10KST1 sets (AID 438);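 further: compound added about 3h40 before a 20 min TNFalpha stimulation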
- Measurement context: HUVEC TNFa-induced p65 nuclear translocation; measured here: nuclei count (cytotoxicity indicator), at 2.08 µM
Measured parameter: cell count

• COc1cccc(-c2cc(C(=O)Nc3cc(C)n(Cc4ccc(Cl)cc4)n3)no2)c1 = 498
• CN(CC(=O)Nc1ccncc1)S(=O)(=O)c1ccccc1 = 351
• CCOC(=O)C1=C(CC)Nc2ccccc2N=C1NC(=O)Nc1ccccc1OC = 485
• CCOc1cccc(OCCOCCN2CCCC2)c1 = 802
• CCN(C(=O)CN1CCN(c2ccccc2OC)CC1)c1c(N)n(Cc2ccccc2)c(=O)[nH]c1=O = 471
• c1ccc2c(c1)ccc1nnc(-c3ccc4c(c3)OCO4)n12 = 338
• Cc1occc1C(=O)Nc1cccc2ccccc12 = 670
• Cc1ccc(S(=O)(=O)NC(C(=O)OCC(=O)NC2CCS(=O)(=O)C2)C(C)C)cc1 (stereo unspecified) = 654
• CCC(C)NC(=O)CSC1=Nc2ccccc2C2=NC(CC(=O)NCc3ccccc3)C(=O)N12 (stereo unspecified) = 651
• Cc1cccc(C)c1OCC(=O)Nc1cccc(NC(=O)c2ccco2)c1 = 464
• COC(=O)Nc1ccc(S(=O)(=O)N(C)CC(F)(F)C(F)F)cc1 = 642
• Cc1ccc(NCc2nnc(SCC(=O)N3CCCCC3)n2CC2CCCO2)c(C)c1 (stereo unspecified) = 484
• COc1ccc(C(=O)Nn2c(SCC(=O)NCC3CCCO3)nc3ccccc3c2=O)cc1 (stereo unspecified) = 512
• CC1(C)CC(=O)c2cc(OCC(=O)NCCCN3CCN(c4ccccc4F)CC3)ccc2O1 = 398
• NC(=O)C1(N2CCCCC2)CCN(C2CC(=O)N(Cc3cccs3)C2=O)CC1 (stereo unspecified) = 378
• O=C1c2ccccc2C(=O)N1OCc1ccccc1 = 457

###

Some molecules, each annotated with its measured cell count.
- Experiment: inhibitors of TNFa-induced NFkB p65 translocation, primary screen, imaging, HUVEC, MLSMR starter and 10KST1 sets (AID 438);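 further: compound added about 3h40 before a 20 min TNFalpha stimulation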
- Measurement context: HUVEC TNFa-induced p65 nuclear translocation; measured here: nuclei count (cytotoxicity indicator), at 2.08 µM
Measured parameter: cell count

* CCN1CCN(c2nc(-c3cccnc3)nc3ccccc23)CC1 | 598
* COCC(=O)N(Cc1nc2ccccc2c(=O)[nH]1)Cc1cccs1 | 608
* CC(C)CCNC(=O)NC(=O)CN1C(=O)NC2(CCCCC2)C1=O | 560
* CC1CN(CC(O)COc2ccc(C(C)C)cc2)CC(C)O1 (centres undefined) | 812
* CC1C(O)=C(c2nc3ccccc3[nH]2)C(=N)N1c1ccccc1 (centres undefined) | 331
* CC(NC(=O)CSc1n[nH]c(=O)n1C1CC1)C12CC3CC(CC(C3)C1)C2 (centres undefined) | 563
* O=C(c1cnsn1)N1CCN(c2ccccn2)CC1 | 277
* Cc1ccc(NC(=O)c2oc3ccc(S(=O)(=O)N4CCOCC4)cc3c2C)cc1C | 357
* C=C(c1ccc(O)cc1)c1ccc(O)cc1 | 447

The reported measurements were obtained from PubChem BioAssay.
